tested on: THP-1; assay: Cell growth inhibition assay (CellTiter-Glo), THP-1; type: cell-based, human; details: THP-1 cells, 4 days, total growth inhibition
quantity.measured: THP-1 TGI (µM)
Dear colleague, please return just the value in µM, with no unit written.

## Task Endpoint output: THP-1 TGI of COCn1cc(C)c2c1C(c1ccc(Cl)cc1)N(c1cc(C)c3nnn(C)c3n1)C2=O (stereo not shown) [Example 2] . Value?
## Result 0.0347

## Task Endpoint output: THP-1 TGI of CNC(=O)c1cn(C)c2c1C(=O)N(c1cc(C)c3nnn(C)c3c1)C2c1ccc(Cl)cc1 (stereo not shown) [Example 98] . Value?
## Result 0.01597

## Task Endpoint output: THP-1 TGI of Cc1cc(N2C(=O)c3cc(-c4ccccn4)n(C)c3C2c2ccc(Cl)cc2)cn(C)c1=O (stereo not shown) [Example 52] . Value?
## Result 2.63

## Task Endpoint output: THP-1 TGI of CCOC(=O)n1ccc2c1C(c1ccc(Cl)cc1)N(c1cc(C)c3nnc(C)n3c1)C2=O (stereo not shown) [Example 22] . Value?
## Result 0.13

## Task Endpoint output: THP-1 TGI of CNC(=O)c1cn(C)c2c1C(=O)N(c1cc(C)c3nnc(C(F)F)n3c1)C2c1ccc(Cl)cc1 (stereo not shown) [Example 132] . Value?
## Result 0.026

## Task Endpoint output: THP-1 TGI of Cc1cc(N2C(=O)c3c(C4CC4)cn(C4CN(C)C4)c3C2c2ccc(Cl)cc2)cn2c(C)nnc12 (stereo not shown) [Example 16] . Value?
## Result 0.0355

## Task Endpoint output: THP-1 TGI of Cc1cc(N2C(=O)c3ccn(C)c3C2c2ccc(Cl)cc2)nn2c(C)nnc12 (stereo not shown) [Example 131] . Value?
## Result 0.03025

## Task Endpoint output: THP-1 TGI of Cc1cc(N2C(=O)c3c(C(N)=O)cn(C)c3C2c2ccc(Cl)cc2)cn2c(C)nnc12 (stereo not shown) [Example 101] . Value?
## Result 0.4505

## Task Endpoint output: THP-1 TGI of Cc1cc(N2C(=O)c3cc(-c4cccn(C)c4=O)[nH]c3C2c2ccc(Cl)cc2)cn2c(C)nnc12 (stereo not shown) [Example 25] . Value?
## Result 0.0949

## Task Endpoint output: THP-1 TGI of Cc1cc(N2C(=O)c3cc(C4CCOCC4)n(C)c3C2c2ccc(Cl)cc2)cn2c(C)nnc12 (stereo not shown) [Example 121] . Value?
## Result 0.0862

## Task Endpoint output: THP-1 TGI of Cn1cc(N2C(=O)c3cc(-c4cccc(=O)n4C)n(C4CC4)c3C2c2ccc(Cl)cc2)cc(Cl)c1=O (stereo not shown) [Example 62] . Value?
## Result 1.19

## Task Endpoint output: THP-1 TGI of Cn1ccc2c1[C@@H](c1ccc(Cl)cc1)N(c1cc(Cl)c(=O)n(C)c1)C2=O [Example 77] . Value?
## Result 0.146

## Task Endpoint output: THP-1 TGI of CNC(=O)n1ccc2c1C(c1ccc(Cl)cc1)N(c1cc(C)c3nnc(C)n3c1)C2=O (stereo not shown) [Example 23] . Value?
## Result 0.1017

## Task Endpoint output: THP-1 TGI of Cc1cc(N2C(=O)c3cc(C)n(C)c3C2c2ccc(Cl)cc2)cn(C)c1=O (stereo not shown) [Example 69] . Value?
## Result 0.144

## Task Endpoint output: THP-1 TGI of COc1ncc(-c2cc3c(n2C)C(c2ccc(Cl)cc2)N(c2cc(C)c(=O)n(C)c2)C3=O)cn1 (stereo not shown) [Example 55] . Value?
## Result 0.13

## Task Endpoint output: THP-1 TGI of CNC(=O)c1cn(C)c2c1C(=O)N(c1cc(C)c3nnc(C(F)F)n3n1)C2c1ccc(Cl)cc1 (stereo not shown) [Example 108] . Value?
## Result 0.07275
